# Test Summary: Metabolic stability in human liver microsomes
# Format: in vitro ADME
# Setup Conditions: pH 7.4; pooled human liver microsomes 0.5 mg/mL, test compound 3 μM, NADPH, 0, 5, 15, 30, 45 min, LC-MS/MS
Outcome Measure: log10 of half-life at 3 μM (log10 of the value in h)
Scale: log10; quantity: half-life at 3 μM; unit before log: h

// below: answered compounds
- Compound: "[2H]c1ccc2c(c1)OCC(C1=NCCN1)O2 (stereo not shown)"
  Outcome Measure: "log10 of half-life at 3 μM"
  Numeric Readout: 0.91
- Compound: "[2H]c1ccc2c(c1)OC(C1=NCCN1)CO2 (stereo not shown)"
  Outcome Measure: "log10 of half-life at 3 μM"
  Numeric Readout: 1.34
- Compound: "[2H]C1([2H])N=C(C2COc3ccccc3O2)NC1([2H])[2H] (stereo not shown)"
  Outcome Measure: "log10 of half-life at 3 μM"
  Numeric Readout: 0.90
- Compound: "c1ccc2c(c1)OCC(C1=NCCN1)O2 (stereo not shown)"
  Outcome Measure: "log10 of half-life at 3 μM"
  Numeric Readout: 0.63
- Compound: "[2H]c1c([2H])c([2H])c2c(c1[2H])OCC(C1=NCCN1)O2 (stereo not shown)"
  Outcome Measure: "log10 of half-life at 3 μM"
  Numeric Readout: 0.95

Task: Reported log10 of half-life at 3 μM for COc1ccc2c(c1)[C@]13CCCC[C@@H]1[C@H](C2)N(C)CC3 [Dextromethorphan, reference compound] : what is it?
Output: -0.32

Task: Given the compound [2H]c1cc2c(cc1[2H])OC(C1=NCCN1)CO2 (stereo not shown) , what is its reported log10 of half-life at 3 μM?
Output: 1.02

Sourced from patent US20250195477A1
